The origin of these recorded values is paper PMC10786891.

Target: T1, EsCas13d, nuclease-dead (Eubacterium siraeum, UniProt B0MS50, R295A;H300A;R849A;H854A)
T1 sequence: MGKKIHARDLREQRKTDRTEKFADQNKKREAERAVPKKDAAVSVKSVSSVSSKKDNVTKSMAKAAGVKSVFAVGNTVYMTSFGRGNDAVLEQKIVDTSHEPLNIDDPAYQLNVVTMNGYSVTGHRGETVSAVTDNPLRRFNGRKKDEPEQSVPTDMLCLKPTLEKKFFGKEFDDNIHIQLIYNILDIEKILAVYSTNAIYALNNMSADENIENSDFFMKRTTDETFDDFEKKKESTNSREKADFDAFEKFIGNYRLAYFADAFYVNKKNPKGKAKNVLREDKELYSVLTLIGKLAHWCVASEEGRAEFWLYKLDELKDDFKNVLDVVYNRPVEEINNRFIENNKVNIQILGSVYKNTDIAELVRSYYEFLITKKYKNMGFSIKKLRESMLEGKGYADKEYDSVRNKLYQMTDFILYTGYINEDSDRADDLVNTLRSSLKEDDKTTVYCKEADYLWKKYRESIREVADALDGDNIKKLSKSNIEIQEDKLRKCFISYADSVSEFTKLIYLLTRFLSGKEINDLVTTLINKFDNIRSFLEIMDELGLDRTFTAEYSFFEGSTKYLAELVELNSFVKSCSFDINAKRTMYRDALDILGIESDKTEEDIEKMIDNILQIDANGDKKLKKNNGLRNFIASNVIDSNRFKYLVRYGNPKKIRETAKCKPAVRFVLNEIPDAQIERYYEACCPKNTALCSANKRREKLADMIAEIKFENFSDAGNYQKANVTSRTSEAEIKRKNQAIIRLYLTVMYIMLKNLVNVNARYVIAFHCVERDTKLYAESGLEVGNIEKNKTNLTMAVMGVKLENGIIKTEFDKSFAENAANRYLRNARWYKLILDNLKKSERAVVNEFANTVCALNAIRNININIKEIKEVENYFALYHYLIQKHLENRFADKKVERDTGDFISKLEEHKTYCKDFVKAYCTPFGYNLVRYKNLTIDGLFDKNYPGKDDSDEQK
Assay: crRNA (strand 1, pre-loaded); Mg2+; 40 mM Tris-HCl pH 7.5, 150 mM NaCl, 6 mM MgCl2, 1 mM DTT, 0.1% Tween-20, 0.2 mg/ml BSA; 25 C; 10 min per concentration, then washed
Conditions: tags: His6-TwinStrep-SUMO cleaved; N-terminal SNAP kept (SNAP-Surface 488); label: 3' end held by stalled T7 RNA polymerase
VALUE TYPE: pKd
One number for each entry, as −log10 of the molar value.

BINDER: target 2 MT 5'PFS UCU 3'PFS UUU (mixed) RNA 1: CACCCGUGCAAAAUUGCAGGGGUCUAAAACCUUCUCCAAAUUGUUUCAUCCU RNA 2: GGGAAUGGAUCCACAUCUACGAAUUCUCUAGGAUGAAACAAUUUGGAGAAGUUUAGAUCGGAAGAGCACACGU
RECORDED RESULT: 7.99

Given item target 2 MT 5'PFS CUG 3'PFS ACG (mixed) RNA 1: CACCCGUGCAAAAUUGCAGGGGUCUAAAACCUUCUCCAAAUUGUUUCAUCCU RNA 2: GGGAAUGGAUCCACAUCUACGAAUUCCUGAGGAUGAAACAAUUUGGAGAAGACGAGAUCGGAAGAGCACACGU , the value recorded as its pKd is 8.54
